Tested on: SK-OV-3 ovarian
Assay: NCI-60 one-dose screen, 48 h (100 = growth as untreated, 0 = no growth, -100 = all killed)
Conditions: 10 µM unless noted
Protocol: Growth inhibition of the SK-OV-3 human tumor cell line is measured as a screen for anti-cancer activity. Cells are grown in 96 well plates and exposed to the test compound for 48 hours. Compounds are tested at a single concentration, which is 10^-5 M for most compounds. The reported endpoint is percent growth (GI% or GIPRCNT), where numbers from 0 - 100% represent growth inhibition, and numbers from -100% - 0 represent cell death. For example, a value of 40 represents 60% growth inhibition. […]
About 83,000 compounds went through this panel and 20% of them were active in at least one assay; those are over-represented in the sample as a whole.
propertyMeasured: growth (%)
Only the number, expressed in %, is required.

// assay SK-OV-3 ovarian, entry COc1ccc2[nH]cc(-c3cc4nc(-c5cn(C)c6ncc(Br)cc56)cc(N)n4n3)c2c1 , growth value = -42.6

// assay SK-OV-3 ovarian, entry Cn1cc(-c2cc(N)n3nc(-c4c[nH]c5ccc(F)cc45)cc3n2)c2cc(Br)cnc21 , growth value = 104

// assay SK-OV-3 ovarian, entry O=C(CSc1nnc(-c2ccc(-c3nc4ccc(Cl)cc4[nH]3)cc2)o1)Nc1ccccc1 , growth value = 66.3

// assay SK-OV-3 ovarian, entry COc1ccc2c(c1)c(-c1cc(N)n3nc(-c4c[nH]c5ccccc45)cc3n1)cn2C , growth value = -55.6

// assay SK-OV-3 ovarian, entry O=C(N/N=C/c1ccc(Br)o1)c1[nH]c2ccc(Br)cc2c1-c1ccccc1 , growth value = 22

// assay SK-OV-3 ovarian, entry Cn1cc(Nc2ncnc(-c3ccc(N4CCCC4)c(C#N)c3)n2)cn1 , growth value = 76.4

// assay SK-OV-3 ovarian, entry NC(=O)c1ccc(-c2ccc3ncnc(N4CCc5cc(F)c(Cl)cc54)c3c2)cn1 , growth value = 101

// assay SK-OV-3 ovarian, entry COc1cccc(-c2ccc(/C=N/NC(=O)c3[nH]c4ccc(Br)cc4c3-c3ccccc3)s2)c1 , growth value = 22.1

// assay SK-OV-3 ovarian, entry CN(C)c1nc(NCCNS(=O)(=O)c2ccc(C3=Nc4c(N)nc(N)nc4NC(c4ccc(C(F)(F)F)cc4)C3)cc2)nc(N2CCOCC2)n1 (centres undefined) , growth value = 55.8

// assay SK-OV-3 ovarian, entry CC(=O)Nc1ccc(S(=O)(=O)Nc2ccc(-c3ccc4c(c3)NC(=O)/C4=C\c3ccc[nH]3)cc2)cc1 , growth value = 104

// assay SK-OV-3 ovarian, entry O=C1CCC(N2C(=O)c3cccc(NCCCCCC(=O)N4CCN(c5ccc6nc7c(nc6c5C(F)(F)F)C(=O)c5ncccc5C7=O)CC4)c3C2=O)C(=O)N1 (centres undefined) , growth value = -66.9

// assay SK-OV-3 ovarian, entry COc1ccc(-c2nc3ccc(-c4nnc(SCc5ccccc5)o4)cc3[nH]2)cc1OC , growth value = 62.9

// assay SK-OV-3 ovarian, entry NS(=O)(=O)c1ccc(N2N=C(c3ccc(NC(=O)Nc4ccccc4)cc3)CC2c2ccc(Br)cc2)cc1 (centres undefined) , growth value = -61.7

// assay SK-OV-3 ovarian, entry O=C(COc1ccc(/C=C2/C(=O)Nc3ccc(Cl)cc32)cc1)Nc1ccc(Br)cc1 , growth value = -57.8

// assay SK-OV-3 ovarian, entry COc1ccc(/C=C/C(=O)c2ccc(S(=O)(=O)NCCNc3nc(N(C)C)nc(N4CCOCC4)n3)cc2)cc1 , growth value = 101

// assay SK-OV-3 ovarian, entry COC(=O)CSC1=C(C)C(=O)C(OC)=C(OC)C1=O , growth value = 100

// assay SK-OV-3 ovarian, entry C#CCCCNCCNc1ccnc2cc(Cl)ccc12 , growth value = 103

// assay SK-OV-3 ovarian, entry CCCSc1nnc(-c2c(C)nc3sccn23)o1 , growth value = 108

// assay SK-OV-3 ovarian, entry Cc1ccc(Nc2nnc(-c3c[nH]c4ccccc34)o2)c(C)c1 , growth value = 16.2

All figures here come from PubChem BioAssay (NCI).
